# TARGET OR TEST SYSTEM: Sodium-dependent noradrenaline transporter (Homo sapiens) (UniProt P23975)
# Sequence (P23975 whole entry): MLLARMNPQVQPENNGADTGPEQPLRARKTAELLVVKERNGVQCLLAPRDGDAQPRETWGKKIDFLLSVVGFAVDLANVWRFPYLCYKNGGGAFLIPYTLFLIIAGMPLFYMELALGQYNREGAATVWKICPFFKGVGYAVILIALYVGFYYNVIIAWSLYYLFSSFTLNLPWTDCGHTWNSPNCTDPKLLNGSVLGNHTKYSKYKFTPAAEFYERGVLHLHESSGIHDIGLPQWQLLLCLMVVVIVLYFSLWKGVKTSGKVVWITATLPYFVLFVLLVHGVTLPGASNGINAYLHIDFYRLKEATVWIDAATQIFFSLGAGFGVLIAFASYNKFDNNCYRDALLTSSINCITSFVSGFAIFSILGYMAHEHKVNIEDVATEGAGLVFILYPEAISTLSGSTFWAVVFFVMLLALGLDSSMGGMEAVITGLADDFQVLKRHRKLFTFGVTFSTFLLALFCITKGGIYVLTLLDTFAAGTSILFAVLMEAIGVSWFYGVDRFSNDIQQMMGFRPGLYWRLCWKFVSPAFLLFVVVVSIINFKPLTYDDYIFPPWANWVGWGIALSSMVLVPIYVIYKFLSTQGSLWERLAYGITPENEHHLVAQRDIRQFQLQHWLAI
# ASSAY CONTEXT: Compound concentration 10 µM
# Description: PDSP Primary Binding target: SLC6A2 - Compounds are tested at 10 uM concentration, plate are incubated at room temperature in the dark for 90 minutes. Reaction are stopped by vacuum filtration onto 0.3% polyethyleneimine soaked filter mats using Filtermate harvester. Scintilation cocktail is then melted onto microwave-dried filters on a hot plate and the radio activity is counted in Microbia counter.
Rule: inhibition under 20% gives condition not met, otherwise condition met.

>>> label_value("Cc1cc(NC(=O)NCCN2CCC(O)(Cc3ccccc3)CC2)c2ccccc2n1")
"condition met"
>>> label_value("Cc1nc(C#Cc2ccnc(Cl)c2)c(C)n1-c1ccc(OC(F)(F)F)cc1")
"condition not met"
>>> label_value("CN1C(=O)[C@@H](NC(=O)c2cc3ccccc3[nH]2)N=C(c2ccccc2)c2ccccc21")
"condition met"
>>> label_value("C[C@H](Cc1cc2c(c(C(N)=O)c1)N(CCCO)CC2)NCCOc1ccccc1OCC(F)(F)F")
"condition not met"
>>> label_value("CNc1nc(NCc2ccc(NS(C)(=O)=O)cc2Cl)cc(-c2ccccn2)n1")
"condition met"
>>> label_value("CCCCN(CCCC)C(=O)CN1C[C@@H](c2ccc3c(c2)OCO3)[C@H](C(=O)O)[C@H]1c1ccc(OC)cc1")
"condition not met"
>>> label_value("CC1(C)SSC(C)(C)[C@@H](NC(=O)[C@@H](N)Cc2ccc(O)cc2)C(=O)NCC(=O)N[C@@H](Cc2ccccc2)C(=O)N[C@H]1C(=O)O")
"condition not met"
>>> label_value("N#Cc1c(N)nc(SCc2csc(-c3ccc(Cl)cc3)n2)c(C#N)c1-c1ccc(OCCO)cc1")
"condition met"
>>> label_value("O=C(c1cc2c(cc1F)OC(c1ccc(F)cc1)(c1ccc(Cl)cc1Cl)O2)N1CCOCC1 (stereo not given)")
"condition met"
>>> label_value("CS(=O)(=O)NC[C@H]1CC[C@H](Nc2nc3c(s2)CCSc2ccccc2-3)CC1")
"condition not met"
>>> label_value("CC(C)NCC(O)COc1ccc(CCOCC2CC2)cc1 (stereo not given)")
"condition met"
>>> label_value("CN1CCC(C(=O)c2cccc(NC(=O)c3c(F)cc(F)cc3F)n2)CC1")
"condition met"
>>> label_value("CC(C)NCC(O)COc1cccc2ccccc12 (stereo not given)")
"condition met"
>>> label_value("O=c1ccc2ccc(OCCCCN3CCN(c4cccc5sccc45)CC3)cc2[nH]1")
"condition met"
>>> label_value("Cc1nc(-c2ccc(C(F)(F)F)cc2)sc1COc1ccc([C@H](CC(=O)O)c2ccon2)cc1")
"condition not met"
>>> label_value("C[N+]1(C)[C@@H]2C[C@@H](OC(=O)C(O)(c3cccs3)c3cccs3)C[C@H]1[C@@H]1O[C@@H]12")
"condition not met"
>>> label_value("C/C(=N\\NC(=O)[C@@H]1C(=O)NC[C@H]1c1ccccc1)c1cccc(Br)c1")
"condition not met"
>>> label_value("CCc1ccc(OCc2ccccc2C(=O)Nc2ccc3nc(C)cc(N)c3c2)cc1")
"condition met"
>>> label_value("CCc1cc2c(cc1CC)CC(NC[C@H](O)c1ccc(O)c3[nH]c(=O)ccc13)C2")
"condition met"
